molecular target: T1, human MSLN-FL-his protein (human, UniProt Q13421 296-580); test: competitive ELISA; row F8-8.22; also: test concentration or dose not given here
T1 construct: made in HEK293E cells, purified on nickel column; also called hMSLN-FL-his; human MSLN full-length protein; not shown: His tag
T1 sequence (Q13421 other isoform, or with tags, fused parts or gaps): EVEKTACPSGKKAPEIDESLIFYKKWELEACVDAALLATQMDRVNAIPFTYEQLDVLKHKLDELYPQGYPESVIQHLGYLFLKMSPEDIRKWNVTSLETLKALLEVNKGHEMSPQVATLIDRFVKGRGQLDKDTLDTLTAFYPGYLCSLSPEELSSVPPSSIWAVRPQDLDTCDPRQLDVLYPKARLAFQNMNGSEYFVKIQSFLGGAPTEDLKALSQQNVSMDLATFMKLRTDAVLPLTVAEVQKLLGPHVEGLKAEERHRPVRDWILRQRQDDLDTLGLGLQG

{"Binder": "S009-F8-36.12 (antibody, human IgG1, kappa, V domains shown, human-murine chimeric antibody, human IgG1/kappa constant regions) VH: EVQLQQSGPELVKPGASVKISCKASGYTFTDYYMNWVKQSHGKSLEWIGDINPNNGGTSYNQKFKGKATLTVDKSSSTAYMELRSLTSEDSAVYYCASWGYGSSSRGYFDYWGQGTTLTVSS VL: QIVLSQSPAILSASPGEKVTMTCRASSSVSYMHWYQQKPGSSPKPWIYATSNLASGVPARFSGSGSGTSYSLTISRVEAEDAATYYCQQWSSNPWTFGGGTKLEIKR", "competition rate / %": 5.9}

Source of measurements: patent US20250250357A1
